Values from patent US20230263822A1

# MEASUREMENT DESCRIPTION: Hematology assays in cynomolgus monkeys (Example 45)
# Assay type: in vivo
# SETTINGS: day −14
Assign class by neutrophils: not lower than 50% means y; lower than 50% means n.

Answered examples (3):
SUBSTANCE | ANSWER LABEL
ISIS 416838: MOE gapmer, nucleobases 1018 to 1042 of SEQ ID NO: 1 (Table 6) (antisense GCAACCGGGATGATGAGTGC; MOE gapmer, wing and gap sizes not given here) | n
ISIS 416858: MOE gapmer, nucleobases 1275 to 1318 of SEQ ID NO: 1 (Table 8) (antisense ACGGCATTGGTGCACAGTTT; MOE gapmer, wing and gap sizes not given here) | n
ISIS 416864: MOE gapmer, nucleobases 1275 to 1318 of SEQ ID NO: 1 (Table 8) (antisense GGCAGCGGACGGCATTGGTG; MOE gapmer, wing and gap sizes not given here) | y

Exam item: decide whether the reported neutrophils for ISIS 417002: MOE gapmer, nucleobases 1275 to 1318 of SEQ ID NO: 1 (Table 8) (antisense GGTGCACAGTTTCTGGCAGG; MOE gapmer, wing and gap sizes not given here) is at least 50%.
n

###

Here the recorded Inhibition of Factor 11 protein relative to the PBS control is given for each entry.
# Test system: Factor 11 protein
# MEASUREMENT DESCRIPTION: Factor 11 protein in monkey plasma by sandwich ELISA (Example 45)
# Assay type: in vivo, cynomolgus monkeys
# SETTINGS: day 71; escalating dose regimen; plasma ELISA
Response body: numeric value in %, unit text excluded.

# annotated cases, reported Inhibition of Factor 11 protein relative to the PBS control shown
SUBSTANCE | SYSTEM | VALUE UNITS | REPORTED
ISIS 416864: MOE gapmer, nucleobases 1275 to 1318 of SEQ ID NO: 1 (Table 8) (antisense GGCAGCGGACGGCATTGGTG; MOE gapmer, wing and gap sizes not given here) | Factor 11 protein | % | 10
ISIS 416838: MOE gapmer, nucleobases 1018 to 1042 of SEQ ID NO: 1 (Table 6) (antisense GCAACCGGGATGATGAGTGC; MOE gapmer, wing and gap sizes not given here) | Factor 11 protein | % | 12
ISIS 416858: MOE gapmer, nucleobases 1275 to 1318 of SEQ ID NO: 1 (Table 8) (antisense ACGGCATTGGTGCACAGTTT; MOE gapmer, wing and gap sizes not given here) | Factor 11 protein | % | 71

Input ISIS 416850: MOE gapmer, nucleobases 1275 to 1318 of SEQ ID NO: 1 (Table 8) (antisense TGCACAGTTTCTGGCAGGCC; MOE gapmer, wing and gap sizes not given here) . Output Inhibition of Factor 11 protein relative to the PBS control: 57

Input ISIS 417002: MOE gapmer, nucleobases 1275 to 1318 of SEQ ID NO: 1 (Table 8) (antisense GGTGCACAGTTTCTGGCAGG; MOE gapmer, wing and gap sizes not given here) . Output Inhibition of Factor 11 protein relative to the PBS control: 30

###

# Test system: blood coagulation
# MEASUREMENT DESCRIPTION: PT and aPTT assay in cynomolgus monkeys (Example 45)
# Assay type: in vivo
# SETTINGS: day 85; escalating dose regimen; platelet poor plasma
Here the recorded PT ratio (INR) is given for each entry.
The answer should be written as a number, with no unit following it.

SUBSTANCE | READOUT | REPORTED
ISIS 416838: MOE gapmer, nucleobases 1018 to 1042 of SEQ ID NO: 1 (Table 6) (antisense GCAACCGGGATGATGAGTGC; MOE gapmer, wing and gap sizes not given here) | PT ratio (INR) | 1.05
ISIS 416858: MOE gapmer, nucleobases 1275 to 1318 of SEQ ID NO: 1 (Table 8) (antisense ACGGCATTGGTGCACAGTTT; MOE gapmer, wing and gap sizes not given here) | PT ratio (INR) | 1.07
ISIS 416864: MOE gapmer, nucleobases 1275 to 1318 of SEQ ID NO: 1 (Table 8) (antisense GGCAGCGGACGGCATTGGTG; MOE gapmer, wing and gap sizes not given here) | PT ratio (INR) | 1.13
ISIS 417002: MOE gapmer, nucleobases 1275 to 1318 of SEQ ID NO: 1 (Table 8) (antisense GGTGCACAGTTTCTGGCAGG; MOE gapmer, wing and gap sizes not given here) | PT ratio (INR) | 1.02

For the next question, use this substance.
Input ISIS 416850: MOE gapmer, nucleobases 1275 to 1318 of SEQ ID NO: 1 (Table 8) (antisense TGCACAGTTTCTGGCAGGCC; MOE gapmer, wing and gap sizes not given here) . Output PT ratio (INR): 1.04
